Biological target: T1, EsCas13d, nuclease-dead (Eubacterium siraeum, UniProt B0MS50, R295A;H300A;R849A;H854A)
T1 sequence: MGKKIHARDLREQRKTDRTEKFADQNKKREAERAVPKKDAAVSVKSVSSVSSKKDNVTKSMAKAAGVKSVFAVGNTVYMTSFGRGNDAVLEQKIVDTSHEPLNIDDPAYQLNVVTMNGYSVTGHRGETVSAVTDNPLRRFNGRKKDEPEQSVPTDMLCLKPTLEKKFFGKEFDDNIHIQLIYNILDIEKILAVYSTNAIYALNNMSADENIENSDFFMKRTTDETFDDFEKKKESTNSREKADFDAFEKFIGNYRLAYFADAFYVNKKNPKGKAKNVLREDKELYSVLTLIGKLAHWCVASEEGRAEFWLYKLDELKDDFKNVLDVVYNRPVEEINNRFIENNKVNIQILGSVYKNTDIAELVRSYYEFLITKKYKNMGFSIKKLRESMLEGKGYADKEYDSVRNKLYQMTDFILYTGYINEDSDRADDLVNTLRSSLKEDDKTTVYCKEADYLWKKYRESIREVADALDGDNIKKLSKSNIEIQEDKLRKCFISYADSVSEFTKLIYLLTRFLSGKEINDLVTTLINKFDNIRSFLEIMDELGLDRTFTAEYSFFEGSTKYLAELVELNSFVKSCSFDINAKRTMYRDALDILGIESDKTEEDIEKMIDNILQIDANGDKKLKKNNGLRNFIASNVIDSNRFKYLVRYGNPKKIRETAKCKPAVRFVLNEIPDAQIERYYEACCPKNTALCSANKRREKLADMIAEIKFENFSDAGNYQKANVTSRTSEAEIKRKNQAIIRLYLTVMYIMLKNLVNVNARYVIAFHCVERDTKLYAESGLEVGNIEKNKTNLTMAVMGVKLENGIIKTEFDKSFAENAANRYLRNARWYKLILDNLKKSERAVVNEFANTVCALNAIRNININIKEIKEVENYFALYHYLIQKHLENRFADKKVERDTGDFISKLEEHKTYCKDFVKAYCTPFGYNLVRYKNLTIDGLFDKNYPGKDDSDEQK
Test: crRNA (strand 1, pre-loaded); Mg2+; 40 mM Tris-HCl pH 7.5, 150 mM NaCl, 6 mM MgCl2, 1 mM DTT, 0.1% Tween-20, 0.2 mg/ml BSA; 25 C; 10 min per concentration, then washed
Details: tags: His6-TwinStrep-SUMO cleaved; N-terminal SNAP kept (SNAP-Surface 488); label: 3' end held by stalled T7 RNA polymerase
Kd values, listed per item

binder: target 1 C2A,G5U (mixed) RNA 1: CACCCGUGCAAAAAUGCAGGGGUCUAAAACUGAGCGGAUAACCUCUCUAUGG RNA 2: GGGAAUGGAUCCACAUCUACGAAUUCGUACCAUAGAGAGGUUAUCCUCUAACCGAGAUCGGAAGAGCACACGU
Kd: 24 nM

binder: target 2 MT 5'PFS AGG 3'PFS ACU (mixed) RNA 1: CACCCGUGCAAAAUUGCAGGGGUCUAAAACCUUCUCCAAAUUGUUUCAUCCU RNA 2: GGGAAUGGAUCCACAUCUACGAAUUCAGGAGGAUGAAACAAUUUGGAGAAGACUAGAUCGGAAGAGCACACGU
Kd: 8.1 nM

binder: target 1 MT 5'PFS UAG 3'PFS AAA (mixed) RNA 1: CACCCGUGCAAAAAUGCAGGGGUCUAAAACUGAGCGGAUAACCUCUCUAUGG RNA 2: GGGAAUGGAUCCACAUCUACGAAUUCUAGCCAUAGAGAGGUUAUCCGCUCAAAAAGAUCGGAAGAGCACACGU
Kd: 34 nM

binder: target 1 MT 5'PFS UAG 3'PFS ACG (mixed) RNA 1: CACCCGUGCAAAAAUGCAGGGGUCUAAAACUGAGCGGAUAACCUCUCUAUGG RNA 2: GGGAAUGGAUCCACAUCUACGAAUUCUAGCCAUAGAGAGGUUAUCCGCUCAACGAGAUCGGAAGAGCACACGU
Kd: 19.1 nM

binder: target 3 insA 3' of 22,insA 3' of 7 (mixed) RNA 1: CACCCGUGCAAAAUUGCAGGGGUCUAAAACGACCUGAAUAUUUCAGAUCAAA RNA 2: GGGAAUGGAUCCACAUCUACGAAUUCGUUUAUUGAUCUGAAAUAUUACAGGUCUGCAGAUCGGAAGAGCACACGU
Kd: 65 nM

binder: target 1 MT 5'PFS GUA 3'PFS UUG (mixed) RNA 1: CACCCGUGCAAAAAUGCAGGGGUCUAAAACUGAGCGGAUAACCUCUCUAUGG RNA 2: GGGAAUGGAUCCACAUCUACGAAUUCGUACCAUAGAGAGGUUAUCCGCUCAUUGAGAUCGGAAGAGCACACGU
Kd: 8.11 nM

binder: target 1 insA 3' of 17,insA 3' of 6 (mixed) RNA 1: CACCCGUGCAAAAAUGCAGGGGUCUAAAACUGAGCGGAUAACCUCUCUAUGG RNA 2: GGGAAUGGAUCCACAUCUACGAAUUCGUACCAUAGAAGAGGUUAUCCAGCUCACCGAGAUCGGAAGAGCACACGU
Kd: 18.3 nM

binder: target 1 MT 5'PFS GCG 3'PFS CCU (mixed) RNA 1: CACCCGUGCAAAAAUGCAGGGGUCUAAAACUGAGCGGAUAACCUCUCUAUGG RNA 2: GGGAAUGGAUCCACAUCUACGAAUUCGCGCCAUAGAGAGGUUAUCCGCUCACCUAGAUCGGAAGAGCACACGU
Kd: 18.5 nM

binder: target 1 insC 3' of 12,insG 3' of 7 (mixed) RNA 1: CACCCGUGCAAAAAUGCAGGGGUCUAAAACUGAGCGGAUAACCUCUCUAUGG RNA 2: GGGAAUGGAUCCACAUCUACGAAUUCGUACCAUAGAGAGGCUUAUCGCGCUCACCGAGAUCGGAAGAGCACACGU
Kd: 16.2 nM

binder: target 1 del13,del20 (mixed) RNA 1: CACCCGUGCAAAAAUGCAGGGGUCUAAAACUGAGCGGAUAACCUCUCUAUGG RNA 2: GGGAAUGGAUCCACAUCUACGAAUUCGUACCUAGAGAGUUAUCCGCUCACCGAGAUCGGAAGAGCACACGU
Kd: 56 nM

binder: target 1 insC 3' of 15,insG 3' of 14 (mixed) RNA 1: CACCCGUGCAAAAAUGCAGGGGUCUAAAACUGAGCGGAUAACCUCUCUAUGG RNA 2: GGGAAUGGAUCCACAUCUACGAAUUCGUACCAUAGAGCAGGGUUAUCCGCUCACCGAGAUCGGAAGAGCACACGU
Kd: 22.7 nM

binder: target 1 C6G,G15C (mixed) RNA 1: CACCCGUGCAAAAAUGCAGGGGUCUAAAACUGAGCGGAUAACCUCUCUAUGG RNA 2: GGGAAUGGAUCCACAUCUACGAAUUCGUACCAUAGACAGGUUAUCGGCUCACCGAGAUCGGAAGAGCACACGU
Kd: 47 nM

binder: target 1 G5A,U10C (mixed) RNA 1: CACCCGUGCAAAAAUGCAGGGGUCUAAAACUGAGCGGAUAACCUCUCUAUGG RNA 2: GGGAAUGGAUCCACAUCUACGAAUUCGUACCAUAGAGAGGUCAUCCACUCACCGAGAUCGGAAGAGCACACGU
Kd: 47 nM

binder: target 2 MT 5'PFS UUA 3'PFS UAA (mixed) RNA 1: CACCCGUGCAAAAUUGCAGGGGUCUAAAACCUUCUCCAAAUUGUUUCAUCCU RNA 2: GGGAAUGGAUCCACAUCUACGAAUUCUUAAGGAUGAAACAAUUUGGAGAAGUAAAGAUCGGAAGAGCACACGU
Kd: 17 nM

binder: target 1 MT 5'PFS GAA 3'PFS UGU (mixed) RNA 1: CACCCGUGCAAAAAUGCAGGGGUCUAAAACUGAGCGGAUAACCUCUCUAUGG RNA 2: GGGAAUGGAUCCACAUCUACGAAUUCGAACCAUAGAGAGGUUAUCCGCUCAUGUAGAUCGGAAGAGCACACGU
Kd: 56.5 nM
